tested on: CCRF-CEM leukemia; test: NCI-60 one-dose screen, 48 h (100 = growth as untreated, 0 = no growth, -100 = all killed); settings: 10 µM unless noted
This is part of a sample that, as a whole, favours compounds with a hit. Of some 83,000 tested, about 20% had one in any assay. Calls of active or inactive are those of the source. The calls were made as follows: active = growth percent below 10; inactive = the rest.
Quick list: growth per entry.

// worked examples, growth included
The compound listed as CCOc1ccc(-c2nc3ccc(-c4nc5ccc(N6CCN(C)CC6)cc5[nH]4)cc3[nH]2)cc1 has a reported growth of 4.03% (active)

The compound listed as O=C1C2=C(Nc3cc([N+](=O)[O-])ccc3N2)OC1c1c2ccccc2cc2ccccc12 (configuration not stated) has a reported growth of 9.72% (active)

The compound listed as CC(C)c1ccc2nc3ccc(C(=O)NCCN4CCN(c5ccccc5)CC4)cn3c(=O)c2c1 has a reported growth of 50.7% (inactive)

The compound listed as NC(=S)N/N=C/c1ccc(Cl)s1 has a reported growth of 94.6% (inactive)

The compound listed as CN(C)c1ccc(N=Nc2cccc3ccccc23)cc1 has a reported growth of 81.6% (inactive)

The compound listed as N#CSCC(=O)c1ccc(Cl)cc1 has a reported growth of 52.5% (inactive)

---
The compound listed as Cc1cc2nc(CS)[nH]c2cc1C has a reported growth of 55% (inactive)

The compound listed as O=C(O)c1ccc2c3c(ncnc13)-c1ccccc1C2=O has a reported growth of 77.9% (inactive)

The compound listed as CCC1OC(OC)C=CC1=O (configuration not stated) has a reported growth of 94.5% (inactive)

The compound listed as CN1c2ccccc2C(C)(C)C12C=Cc1cc(O)ccc1O2 (configuration not stated) has a reported growth of -16.8% (active)

The compound listed as CN(C)C(=O)c1ccc(SC(=S)NCc2ccccc2)cc1 has a reported growth of 0.435% [100 µM] (active)

The compound listed as N[C@H](C(=O)O)[C@@H]1CC(Cl)=NO1 has a reported growth of 19% [20 µM] (inactive)
